# experimental-target: T1, glutathione S-transferase (GST)-SNCG fusion protein (human, UniProt O76070 1-127)
# T1 construct: Expressed in E. coli BL21 (DE3), eluted with reduced glutathione; Used as analyte in SPR, in the cell in ITC and as bait in the GST pull-down; not shown: glutathione S-transferase tag encoded by the pGEX-4T-3 vector (Amersham Biosciences); vector linker with thrombin site between GST and the BamH1 site
# T1 sequence (O76070 whole entry, the tested form may be a part): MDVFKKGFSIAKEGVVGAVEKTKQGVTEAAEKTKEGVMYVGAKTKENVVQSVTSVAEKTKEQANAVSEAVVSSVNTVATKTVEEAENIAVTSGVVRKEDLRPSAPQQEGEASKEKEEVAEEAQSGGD
# procedure-text: ITC, ANK peptide titrated into GST-SNCG, sequential binding site model, first binding site

>  <binder>
Ac-KGNSALHVASQHGHLGCIQTLVRYGANVTMQNHG-NH2 (For SPR it was immobilised on a CM5 chip by ligand thiol coupling; also called ankyrin repeat-like peptide) [ANK peptide KGNSALHVASQHGHLGCIQTLVRYGANVTMQNHG (SEQ ID NO:1)]

>  <Kd>
70 µM

$$$$
